# System: SMN2 expression
# PROTOCOL_TEXT: SMN2-luciferase reporter assay
# Format: cell-based
# SETTINGS: SAR statements in the text
MEASURED_METRIC: activity in the luciferase reporter assay (in words)

Field: example entries. Status: answers known.
| MOLECULE | VALUE |
| --- | --- |
| COc1cc2c(c(OC)c1OC)C(c1cc(C(N)=O)ccc1F)CC(=O)N2 (stereo not drawn) [5i] | not active |
| COc1cc2c(c(OC)c1OC)C(c1cc(Br)ccc1F)CC(=O)N2C (stereo not drawn) [6a] | inactive |
| COc1cc2c(c(OC)c1OC)C(c1cc(F)ccc1F)CC(=O)N2 (stereo not drawn) [5f] | not active |
| COc1ccc(Cl)cc1C1NC(=O)Nc2cc(OC)c(OC)c(OC)c21 (stereo not drawn) [9r] | activity was restored |
| COc1cc2c(c(OC)c1OC)C(c1ccc(F)c(F)c1)CC(=O)N2 (stereo not drawn) [5l] | inactive |
| COc1cc2c(c(OC)c1OC)C(c1cc(Br)ccc1F)C(C)C(=O)N2 (stereo not drawn) [6b] | inactive |
| COc1cc(Cl)ccc1C1NC(=O)Nc2cc(OC)c(OC)c(OC)c21 (stereo not drawn) [9q] | activity was restored |
| COc1cc2c(c(OC)c1OC)C(c1ccc(Cl)cc1Cl)CC(=O)N2 (stereo not drawn) [5k] | inactive |
| COc1ccc(F)c(C2NC(=O)Nc3cc(OC)c(OC)c(OC)c32)c1 (stereo not drawn) [9o] | inactive |
| COc1cc2c(c(OC)c1OC)C(c1ccc(Cl)c(Cl)c1)CC(=O)N2 (stereo not drawn) [5m] | inactive |

Hello, I am looking for reported activity in the luciferase reporter assay (in words) with SMN2 expression for COc1cc2c(c(OC)c1OC)C(c1cc(Cl)ccc1F)OCC(=O)N2C (stereo not drawn) [compound 21] . Could you help?
not tolerated

Given the entry COc1cc2[nH]c(=O)nc(-c3cc(Cl)ccc3F)c2c(OC)c1OC [compound 13] , what activity in the luciferase reporter assay (in words) was observed with SMN2 expression?
inactive

Hello, I am looking for reported activity in the luciferase reporter assay (in words) with SMN2 expression for COc1cc2c(c(OC)c1OC)C(C)(c1cc(Cl)ccc1F)OCC(=O)N2 (stereo not drawn) [compound 23] . Could you help?
not tolerated

Request body: readout activity in the luciferase reporter assay (in words), system SMN2 expression, query COc1cc2c(c(OC)c1OC)C(c1ccc(F)cc1)NC(=O)N2 (stereo not drawn) [9e] . Return the value.
retained some activity

Form field: activity in the luciferase reporter assay (in words) recorded for COc1cc2c(c(OC)c1OC)C(c1ccc(Cl)cc1)NC(=O)N2 (stereo not drawn) [9g] with SMN2 expression (enter value)
retained some activity

activity in the luciferase reporter assay (in words) of COc1cc2c(c(OC)c1OC)C(c1cc(C#N)ccc1F)NC(=O)N2 (stereo not drawn) [9m] on SMN2 expression?
inactive

// lookup activity in the luciferase reporter assay (in words) | system=SMN2 expression | key= COc1cc2c(c(OC)c1OC)C(c1cc(C#N)ccc1F)CC(=O)N2 (stereo not drawn) [5g]
not active

Form entry - test system: SMN2 expression; read-out: activity in the luciferase reporter assay (in words); molecule: COc1cc2c(c(OC)c1OC)C(c1cc([N+](=O)[O-])ccc1F)CC(=O)N2 (stereo not drawn) [5h]
not active

Query for SMN2 expression: what activity in the luciferase reporter assay (in words) does the record show for COc1cc2c(c(OC)c1OC)C(c1cccc(F)c1)NC(=O)N2 (stereo not drawn) [9d] ?
retained some activity

Form field: activity in the luciferase reporter assay (in words) recorded for COc1cc2c(c(OC)c1OC)C(c1cc(-c3ccccc3)ccc1F)NC(=O)N2 (stereo not drawn) [9l] with SMN2 expression (enter value)
inactive

Provide value of activity in the luciferase reporter assay (in words) for this record tested with SMN2 expression: COc1cc2c(c(OC)c1OC)C(c1cccc(Cl)c1Cl)CC(=O)N2 (stereo not drawn) [5j]
inactive

Just for reference, paper PMC5701662 is where these values come from.
